Where do the numbers come from? From PubChem BioAssay (NCI).

# Test system: MOLT-4 leukemia
# assay-name: NCI-60 one-dose screen, 48 h
# settings: 10 µM unless noted
The panel holds about 83,000 compounds, 20% with a hit somewhere; the sample as a whole holds those more often. Calls of active or inactive are those of the source. The calls were made as follows: active = growth percent below 10; inactive = the rest.
Classes used: active, inactive

compound | label-value
O=C(Nc1cccnc1Nc1ccc(F)cc1)c1cn(Cc2cccc(Oc3ccccc3)c2)nn1 | inactive
O=CC1(C2(C=O)c3ccccc3-c3ccccc32)c2ccccc2-c2ccccc21 | active
C=C(C)[C@@H]1CC[C@]2(C(=O)O)CC[C@]3(C)[C@H](CC[C@@H]4[C@@]5(C)C[C@@H](Cc6cn(CCO[C@@H]7O[C@H](COC(C)=O)[C@H](OC(C)=O)[C@H](OC(C)=O)[C@H]7OC(C)=O)nn6)[C@H](O)C(C)(C)[C@@H]5CC[C@]43C)[C@@H]12 | inactive
O=C(CSc1nc2ccc([N+](=O)[O-])cc2[nH]1)Nc1ccc(F)cc1 | inactive
O=C(Nc1cccc([N+](=O)[O-])c1)c1cc2ccccc2cc1O | active
CCN(CC)c1nc(SCc2ccccc2Cl)ncc1C | inactive
Oc1c(Cl)cc(Cl)c2ccc(Cn3cc(-c4cc(F)cc(F)c4)nn3)nc12 | inactive
Cc1c(-n2nnc(-c3nc4ccccc4s3)c2N)c(=O)n(-c2ccccc2)n1C | inactive
COc1ccc2[nH]cc(-c3nc(-c4c[nH]c5ccncc45)cs3)c2c1 | active
N#CC1=C(N)Oc2c(sc3c(Br)cccc23)C1c1ccc(F)cc1 (stereo not drawn) | active
O=S(=O)(NCCNc1cc(-c2c(-c3cccc(O)c3)nc3sccn23)ccn1)c1ccc(C(F)(F)F)cc1 | active
N#CC1CCc2c(c(-c3cn[nH]c3C(F)(F)F)nc3c(F)cc4[nH]ncc4c23)C1 (stereo not drawn) | inactive
CCCCNc1ccc(C#N)c(OCCN(CC)CC)c1 | inactive
COc1cc(OC)cc(C2=C3CC[C@@H]4[C@H](CC[C@]5(C)C(=O)CC[C@@H]45)C3=CC3C(O)c4cccnc4N4C(=O)COC234)c1 (stereo partly drawn) | inactive
Clc1ccc(Sc2cnc(-c3ccccc3)o2)cc1 | inactive
CCOC(=O)c1c2c(n3ccc(C)cc13)C(=O)c1ccccc1C2=O | inactive
COc1cc(-c2nc3cc(Cl)c(Cl)cc3[nH]2)ccc1OCC(=O)N=Nc1c(O)[nH]c2ccc([N+](=O)[O-])cc12 | inactive
C=C1C(=O)O[C@H]2[C@H]1CC/C(COC(=O)CCSCCC(=O)OC/C1=C/CC[C@@]3(C)O[C@H]3[C@H]3OC(=O)C(=C)[C@@H]3CC1)=C\CC[C@@]1(C)O[C@@H]21 | active
